Molecular target: M1-type muscarinic cholinergic receptor (Rattus norvegicus)
Sequence (P08482 1-460): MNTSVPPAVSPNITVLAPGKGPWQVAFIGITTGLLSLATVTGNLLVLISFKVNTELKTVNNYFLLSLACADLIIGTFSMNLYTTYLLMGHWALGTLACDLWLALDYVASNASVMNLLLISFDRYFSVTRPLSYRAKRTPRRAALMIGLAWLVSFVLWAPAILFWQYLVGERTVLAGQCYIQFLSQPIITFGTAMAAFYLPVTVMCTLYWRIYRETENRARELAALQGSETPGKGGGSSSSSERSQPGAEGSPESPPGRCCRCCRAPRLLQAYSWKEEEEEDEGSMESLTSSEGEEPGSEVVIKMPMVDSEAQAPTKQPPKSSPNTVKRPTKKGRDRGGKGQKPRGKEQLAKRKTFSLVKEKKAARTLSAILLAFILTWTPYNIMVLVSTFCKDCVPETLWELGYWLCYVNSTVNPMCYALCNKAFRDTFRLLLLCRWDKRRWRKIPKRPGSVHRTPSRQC
Where a name gives a salt, the structure may show the parent alone.
Recorded Endpoint: log10(IC50) (log10 of the value in nM)

[
  {
    "Compound": "Cl.Cl.c1ccc2c(c1)CCCc1cc(NCCN3CCOCC3)nnc1-2 [SR 95639 A, dihydrochloride]",
    "Observed Value": 2.60
  },
  {
    "Compound": "CN(C)CCOc1cc2c(nn1)-c1ccccc1CCC2.Cl [SR 95822 A, hydrochloride]",
    "Observed Value": 3.00
  },
  {
    "Compound": "CCN(CC)CCCNc1cc2c(nn1)-c1ccccc1CC2.Cl.Cl [SR 95746 A, dihydrochloride]",
    "Observed Value": 3.18
  },
  {
    "Compound": "Cl.Cl.c1ccc2c(c1)CCc1cc(NCCN3CCOCC3)nnc1-2 [SR 95695 A, dihydrochloride]",
    "Observed Value": 3.41
  },
  {
    "Compound": "Cl.Cl.O=[N+]([O-])c1cccc2c1CCCc1cc(NCCN3CCOCC3)nnc1-2 [SR 96100 A, dihydrochloride]",
    "Observed Value": 2.60
  },
  {
    "Compound": "CCCCN(CCCC)CCNc1cc2c(nn1)-c1cc(C)c(C)cc1CCC2",
    "Observed Value": 3.56
  },
  {
    "Compound": "CCN1CCCC1CNc1cc2c(nn1)-c1ccccc1CCC2 (centres unmarked) [SR 95879 A, dihydrochloride]",
    "Observed Value": 2.15
  },
  {
    "Compound": "CCN(CC)CCNc1cc2c(nn1)-c1cc(Cl)ccc1CCC2.Cl.Cl [SR 95878 A, dihydrochloride]",
    "Observed Value": 1.60
  }
]
